Cited source for all entries: patent US8188121B2

Test system: L-6 rat mycoblast cells
Assay: cells
Description: In vitro antiprotozoal activities were measured following established protocols. See Ismail, M. A., et al., J. Med. Chem., 46, 4761-4769 (2003); Stephens, C. E., et al., Bioorg. Med. Chem. Lett., 13, 2065-2069 (2003) (in vitro assay against Leishmania donovani). Testing methods are as described above in Example 17.
property-measured: IC50 (µM)

molecule	property-measured	numeric-readout
NC(=NO)c1ccc(-c2ccc(-c3ccc(C(N)=NO)cc3)c3ccccc23)cc1	IC50	9.4
N=C(N)c1ccc(-c2ccc(-c3ccc(C(=N)N)cc3)c3ccccc23)cc1 [Compound 38a]	IC50	7.3

P = N=C(N)c1ccc(-c2ccc3cc(-c4ccc(C(=N)N)cc4)ccc3c2)cc1 [Compound 38b]
Q = CON=C(N)c1ccc(-c2ccc(-c3ccc(C(N)=NOC)cc3)c3ccccc23)cc1
Prompt: In terms of reported IC50, does P or Q have the smaller number? When you have decided, please share the label of that item.
Response: P

* * *

Tested on: Plasmodium falciparum (P. f.)
Experiment: In vitro antiprotozoal activity against P. f.
Assay type: cell-based
Settings: Table 1; k/K = thousand; hydrochloride salt
Protocol: In vitro antiprotozoal activities were measured following established protocols. See Ismail, M. A., et al., J. Med. Chem., 46, 4761-4769 (2003); Stephens, C. E., et al., Bioorg. Med. Chem. Lett., 13, 2065-2069 (2003) (in vitro assay against Leishmania donovani). Testing methods are as described above in Example 17.
Where a name gives a salt, the structure may show the parent alone.
property-measured: pIC50
Please note pIC50 is a logarithmic value: minus log10 of concentration in mol/L. Answer with that number alone.

Prompt: Param item = CON=C(N)c1ccc(-c2ccc(-c3ccc(C(N)=NOC)nc3)cc2)cn1 [Compound 68, hydrochloride salt] ; retrieve measured pIC50.
Response: 5.26

* * *

System: Leishmania donovani (L. d.)
Assay: In vitro antiprotozoal activity against L. d.
Format: cell-based
Conditions: Table 1; read-out: L. d. IC50
Protocol: In vitro antiprotozoal activities were measured following established protocols. See Ismail, M. A., et al., J. Med. Chem., 46, 4761-4769 (2003); Stephens, C. E., et al., Bioorg. Med. Chem. Lett., 13, 2065-2069 (2003) (in vitro assay against Leishmania donovani). Testing methods are as described above in Example 17.
property-measured: IC50 (µM)
Form entry: value (µM) — number only.

Prompt: Entry CC(C)N=C(N)Nc1ccc(-c2ccc(-c3ccc(NC(N)=NC(C)C)cc3)cc2)cc1 [Compound 51b] , system Leishmania donovani (L. d.): what IC50 was measured?
Response: 7.2

* * *

Reported pIC50 values for a set of molecules
tested on: L-6 rat mycoblast cells; assay: cells; conditions: Rattus norvegicus, L6, read-out: CT IC50, Table 4; L-6 cells
Counter-ions that a name gives are not always drawn.
Please note pIC50 is a logarithmic value: minus log10 of concentration in mol/L. Answer with that number alone.

molecule	pIC50
N=C(N)c1ccc(-c2ccc(-c3ccc(C(=N)N)cn3)cn2)cc1 [Compound 94, hydrochloride salt]	4.55
N=C(N)c1ccc(-c2cnc(-c3ccc(C(=N)N)cc3)cn2)cc1 [Compound 75, hydrochloride salt]	4.37
N=C(N)c1ccc(-c2ccc(-c3cnc(C(=N)N)cn3)cn2)cc1 [Compound 97, hydrochloride salt]	4.03
N=C(N)c1ccc(-c2ccc(-c3ccc(C(=N)N)nc3)cc2)cc1 [Compound 80, hydrochloride salt]	5.55
N=C(N)c1ccc(-c2ccc(-c3ccc(C(=N)N)cn3)cc2)cc1 [Compound 83, hydrochloride salt]	4.57

Prompt: Param item = N=C(N)c1ccc(-c2ccc(-c3ccc(C(=N)N)nc3)cc2)cn1 [Compound 66, hydrochloride salt] ; retrieve measured pIC50.
Response: 5.92

Prompt: Param item = N=C(N)c1cnc(-c2ccc(-c3cnc(C(=N)N)cn3)cc2)cn1 [Compound 71, hydrochloride salt] ; retrieve measured pIC50.
Response: 4.33

Prompt: Param item = N=C(N)c1ccc(-c2ccc(-c3ccc(C(=N)N)nc3)cn2)cc1 [Compound 89, hydrochloride salt] ; retrieve measured pIC50.
Response: 4.70
